# MEASUREMENT_DESCRIPTION: Cytotoxicity assay (WST-1, microscopy) in HaCaT cells
# Type: cell-based, human
# REPORTED_CONDITIONS: human, HaCaT cells (keratinocytes); HaCaT, 25 μM peptide, 24 hours; read-out: survival rate (WST-1)
Ends that are not written are not given here.
Below, each entry is listed with its recorded viability at 24 h, 25 µM.
MEASURED_PARAMETER: viability at 24 h, 25 µM (%)

| INPUT_SEQUENCE | MEASURED_PARAMETER | RESULT |
| --- | --- | --- |
| RLRLRQRRRR [Spep001, RLRLRQRRRR] | viability at 24 h, 25 µM | 103 |
| RKRWLRKPRP [Spep003, RKRWLRKPRP] | viability at 24 h, 25 µM | 98.3 |
| KRRWRKIPKR [Spep002, KRRWRKIPKR] | viability at 24 h, 25 µM | 105 |
